# Test system: NCI-H23 complex spheroids with HUVEC/MSC, viability
# testDetails: Anticancer human tumor NCI-H23 cell line growth inhibition [RAS]; active = viability on the fitted dose curve at most 10% of control; inactive = the rest;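 also: spheroids exposed to compound for 7 days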
# conditions: compound 1 µM
A correct response names exactly one class from active, inactive

Dear all, I need the recorded test outcome for "O=C(c1ccc(F)c(F)c1Nc1ccc(I)cc1F)N1CC(O)([C@@H]2CCCCN2)C1" , thank you.
inactive

Dear all, I need the recorded test outcome for CC1(O)CCCC1n1c(=O)c(C(F)F)cc2cnc(NC3CCN(S(C)(=O)=O)CC3)nc21 (stereo unspecified) , thank you.
inactive

Dear all, I need the recorded test outcome for CC(=O)OC12COC1CC(O)C1(C)C(=O)C(O)C3=C(C)C(OC(=O)C(O)C(NC(=O)OC(C)(C)C)c4ccccc4)CC(O)(C(OC(=O)c4ccccc4)C21)C3(C)C (stereo unspecified) , thank you.
inactive

Dear all, I need the recorded test outcome for C=CC(=O)N1CCN(c2nc(OCC3CCCN3C)nc3c(F)c(-c4nc(N)cc(C)c4C(F)(F)F)c(Cl)cc23)C(C)C1 (stereo unspecified) , thank you.
inactive

Dear all, I need the recorded test outcome for CCC(CC)c1cc(NC2CCC(N)C2)n2nccc2n1 (stereo unspecified) , thank you.
inactive

Dear all, I need the recorded test outcome for Nc1ccn(C2OC(CO)C(O)C2(F)F)c(=O)n1 (stereo unspecified) , thank you.
active

Dear all, I need the recorded test outcome for CC(Nc1ccc2c(c1)OCCn1cc(N3C(=O)OCC3C(F)F)nc1-2)C(N)=O (stereo unspecified) , thank you.
inactive

Dear all, I need the recorded test outcome for NC1c2ccccc2OC12CCN(c1cnc3c(N4CCCc5ncccc54)n[nH]c3n1)CC2 (stereo unspecified) , thank you.
inactive

Dear all, I need the recorded test outcome for C#Cc1c(F)ccc2cc(O)cc(-c3ncc4c(N5CC6CCC(C5)N6)nc(OCC56CCCN5CC(F)C6)nc4c3F)c12 (stereo unspecified) , thank you.
inactive

Dear all, I need the recorded test outcome for Cc1nc(N2CCC3(CC2)COC(C)C3N)c(CO)nc1Sc1ccnc(N)c1Cl (stereo unspecified) , thank you.
inactive

Dear all, I need the recorded test outcome for CC(C)NCC(C(=O)N1CCN(c2ncnc3c2C(C)CC3O)CC1)c1ccc(Cl)cc1 (stereo unspecified) , thank you.
inactive
